The listing below reports IC50 for compounds tested on UniProt Q08499.
Sequence (Q08499 whole entry): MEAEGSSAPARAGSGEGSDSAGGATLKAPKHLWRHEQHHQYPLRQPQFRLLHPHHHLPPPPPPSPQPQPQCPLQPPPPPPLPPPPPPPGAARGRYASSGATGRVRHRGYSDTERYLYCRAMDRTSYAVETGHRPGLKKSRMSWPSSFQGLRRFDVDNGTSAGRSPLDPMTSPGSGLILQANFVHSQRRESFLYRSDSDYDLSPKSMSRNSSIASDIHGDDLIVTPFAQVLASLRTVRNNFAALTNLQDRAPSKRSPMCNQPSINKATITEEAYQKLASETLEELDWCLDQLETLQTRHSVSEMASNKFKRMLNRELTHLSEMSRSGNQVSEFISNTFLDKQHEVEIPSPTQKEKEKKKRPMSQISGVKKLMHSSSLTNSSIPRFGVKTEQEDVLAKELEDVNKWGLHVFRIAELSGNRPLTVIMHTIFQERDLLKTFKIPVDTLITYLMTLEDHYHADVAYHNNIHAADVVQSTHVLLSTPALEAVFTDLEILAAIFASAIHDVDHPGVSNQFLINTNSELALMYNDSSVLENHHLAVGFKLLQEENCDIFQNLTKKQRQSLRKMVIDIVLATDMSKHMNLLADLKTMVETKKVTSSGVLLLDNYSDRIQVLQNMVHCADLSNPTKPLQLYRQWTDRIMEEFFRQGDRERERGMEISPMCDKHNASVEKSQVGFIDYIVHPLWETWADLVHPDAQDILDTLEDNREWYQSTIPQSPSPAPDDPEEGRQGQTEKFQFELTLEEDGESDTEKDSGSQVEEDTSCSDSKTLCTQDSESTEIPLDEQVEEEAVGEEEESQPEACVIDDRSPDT
Give the number; nM is assumed, so skip it.

compound_structure=O=C(O)[C@H]1CC[C@H](c2cc3cccnc3c(-c3cccc(F)c3)n2)CC1 measurement_target="UniProt Q08499" reported_metric=IC50 recorded_result=32
compound_structure=CSc1cccc(-c2nc(N3CCC(C(=O)O)CC3)cc3cccnc23)c1 measurement_target="UniProt Q08499" reported_metric=IC50 recorded_result=51
compound_structure=N#Cc1cccc(-c2nc(N3CCC(C(=O)O)CC3)cc3cccnc23)c1 measurement_target="UniProt Q08499" reported_metric=IC50 recorded_result=19
compound_structure=COc1cccc(-c2nc([C@H]3CC[C@H](C(=O)O)CC3)cc3cccnc23)c1 measurement_target="UniProt Q08499" reported_metric=IC50 recorded_result=64
compound_structure=N#Cc1cccc(-c2nc([C@H]3CC[C@H](C(=O)O)CC3)cc3cccnc23)c1 measurement_target="UniProt Q08499" reported_metric=IC50 recorded_result=41
compound_structure=O=C(O)C1CCN(c2cc3cccnc3c(-c3cccc(Cl)c3)n2)CC1 measurement_target="UniProt Q08499" reported_metric=IC50 recorded_result=30

Next:
The measured IC50 associated with "O=C(O)C1CCN(c2cc3cccnc3c(-c3cccc(OC(F)(F)F)c3)n2)CC1" reads 30

* * *

Assay: Thermodynamic aqueous solubility of the compound at pH 6.8
Assay type: physicochemical
Conditions: buffer, read-out: Therm_solubility
reported.metric: solubility thermodynamic (µg/mL)
Give the number; µg/mL is assumed, so skip it.

For orientation, consider the following solved cases.
compound_structure=O=C(O)C1CCN(c2cc3cccnc3c(-c3cccc(Cl)c3)n2)CC1 reported_metric="solubility thermodynamic" recorded_result=140
compound_structure=CSc1cccc(-c2nc(N3CCC(C(=O)O)CC3)cc3cccnc23)c1 reported_metric="solubility thermodynamic" recorded_result=378

Shift focus to the following entry.
Entry "O=C(O)c1ccc(-c2cc3cccnc3c(-c3ccc4nonc4c3)n2)cc1" — recorded solubility thermodynamic = 2

* * *

Experiment: Half life in rat at 2.1 umol/kg, po
Assay type: ADME, organism-based
Settings: in vivo
reported.metric: half-life (h)
// return numeric value only (unit: h, not printed)

compound_structure=N#Cc1cccc(-c2nc(N3CCC(C(=O)O)CC3)cc3cccnc23)c1 reported_metric=half-life recorded_result=23

Noted for "O=C([O-])C1CCN(c2cc3cccnc3c(-c3cccc(OC(F)(F)F)c3)n2)CC1.[Na+]" : its half-life reads 7

Recorded half-life (molecule "O=C([O-])[C@H]1CC[C@H](c2cc3cccnc3c(-c3cccc(OC(F)(F)F)c3)n2)CC1.[K+]" ): 29

Summary for this molecule, "O=C([O-])[C@H]1CC[C@H](c2cc3cccnc3c(-c3cccc(F)c3)n2)CC1.[K+]" : half-life is 9

* * *

Assay: Oral bioavailability in rat
Format: ADME, organism-based
Settings: in vivo
reported.metric: bioavailability (%)
Numeric answer only, unit % assumed.

What the record says about "O=C(O)c1ccc(-c2cc3cccnc3c(-c3ccc4nonc4c3)n2)cc1" : bioavailability is 8

* * *

Experiment: Volume of distribution at steady state in rat at 4.2 umol/kg, iv
Format: ADME, organism-based
Conditions: in vivo, read-out: Vdss
reported.metric: Vd
A complete answer gives the number and then names the unit.

Noted for "N#Cc1cccc(-c2nc([C@H]3CC[C@H](C(=O)[O-])CC3)cc3cccnc23)c1.[K+]" : its Vd reads 0.25 L/kg

* * *

Assay: Oral bioavailability in rat at 2.1 umol/kg
Type: ADME, organism-based
Conditions: in vivo, 2.1 umol/kg
// bioavailability lookup, one value per entry
Write the value in % as a bare number.

Summary for this molecule, "O=C([O-])C1CCN(c2cc3cccnc3c(-c3cccc(OC(F)(F)F)c3)n2)CC1.[Na+]" : bioavailability is 149

Lab book: bioavailability of "O=C([O-])[C@H]1CC[C@H](c2cc3cccnc3c(-c3cccc(OC(F)(F)F)c3)n2)CC1.[K+]" noted as 107

* * *

Assay: Volume of distribution at steady state in rat at 1.05 umol/kg, iv
Format: ADME, organism-based
Conditions: in vivo, read-out: Vdss
reported.metric: Vd (L/kg)
Give a bare numeral; the unit L/kg is implied.

Reference set (2 entries):
compound_structure=N#Cc1cccc(-c2nc(N3CCC(C(=O)O)CC3)cc3cccnc23)c1 units_label=L/kg recorded_result=0.72
compound_structure=O=C([O-])C1CCN(c2cc3cccnc3c(-c3cccc(OC(F)(F)F)c3)n2)CC1.[Na+] units_label=L/kg recorded_result=0.25

// field: Vd; key: "O=C([O-])[C@H]1CC[C@H](c2cc3cccnc3c(-c3cccc(OC(F)(F)F)c3)n2)CC1.[K+]" ; value = 0.36

* * *

Test: Thermodynamic aqueous solubility of the compound at pH 6.8
Type: physicochemical
Settings: buffer, read-out: Therm_solubility
Each entry below carries its recorded solubility thermodynamic.
Reply with just the number (in µg/mL).

Some entries whose results are on file:
compound_structure=O=C(O)C1CCN(c2cc3cccnc3c(-c3cccc(OC(F)(F)F)c3)n2)CC1 reported_metric="solubility thermodynamic" recorded_result=1950
compound_structure=CSc1cccc(-c2nc([C@H]3CC[C@H](C(=O)O)CC3)cc3cccnc23)c1 reported_metric="solubility thermodynamic" recorded_result=1100

Turning to the following molecule.
response.value for "O=C(O)[C@H]1CC[C@H](c2cc3cccnc3c(-c3cccc(OC(F)(F)F)c3)n2)CC1" (field: solubility thermodynamic) = 6

* * *

Assay: Cmax in rat at 4.2 umol/kg, po
Format: ADME, organism-based
Parameters: dose 4.2 umol/kg, route oral
Settings: in vivo
reported.metric: Cmax (µM)
Report as a plain number; the unit µM is understood.

Recorded result, "N#Cc1cccc(-c2nc([C@H]3CC[C@H](C(=O)[O-])CC3)cc3cccnc23)c1.[K+]" , Cmax: 8.3

* * *

Assay: Cmax in rat at 2.1 umol/kg, po
Assay type: ADME, organism-based
Set-up: dose 2.1 umol/kg, route oral
Settings: in vivo
reported.metric: Cmax (µM)
Give just the number in µM; leave the unit off.

Please review the entries below; each comes with its answer.
compound_structure=O=C([O-])[C@H]1CC[C@H](c2cc3cccnc3c(-c3cccc(F)c3)n2)CC1.[K+] recorded_result=4.6
compound_structure=N#Cc1cccc(-c2nc(N3CCC(C(=O)O)CC3)cc3cccnc23)c1 recorded_result=2.8
compound_structure=O=C([O-])[C@H]1CC[C@H](c2cc3cccnc3c(-c3cccc(OC(F)(F)F)c3)n2)CC1.[K+] recorded_result=3.6

Let us move to another entry and its Cmax.
// sample "O=C([O-])C1CCN(c2cc3cccnc3c(-c3cccc(OC(F)(F)F)c3)n2)CC1.[Na+]" , its Cmax was 4.49

* * *

Experiment: Oral bioavailability in rat at 4.2 umol/kg
Format: ADME, organism-based
Conditions: in vivo, 4.2 umol/kg
reported.metric: bioavailability (%)
Numeric only. Scale: %

bioavailability for "N#Cc1cccc(-c2nc([C@H]3CC[C@H](C(=O)O)CC3)cc3cccnc23)c1" is 92

* * *

// IC50 collected for 3',5'-cyclic-AMP phosphodiesterase 4B (Homo sapiens)
Please respond with the number in nM and leave the unit unwritten.

Sample records with IC50:
compound_structure=O=C(O)C1CCN(c2cc3cccnc3c(-c3cccc(F)c3)n2)CC1 reported_metric=IC50 recorded_result=1330
compound_structure=COc1cccc(-c2nc(N3CCC(C(=O)O)CC3)cc3cccnc23)c1 reported_metric=IC50 recorded_result=615
compound_structure=CSc1cccc(-c2nc(N3CCC(C(=O)O)CC3)cc3cccnc23)c1 reported_metric=IC50 recorded_result=1330

Here is the next item to consider.
Record "O=C(O)C1CCN(c2cc3cccnc3c(-c3cccc(OC(F)(F)F)c3)n2)CC1" , field IC50: 225

* * *

Assay: AUC total in po dosed rat
Assay type: ADME, organism-based
Conditions: plasma
reported.metric: AUC (µM·h)
Give just the numeric value; µM·h need not be written.

For reference, reported AUC for "O=C(O)c1ccc(-c2cc3cccnc3c(-c3ccc4nonc4c3)n2)cc1" stands at 8.72

* * *

Assay: Half life in rat at 4.2 umol/kg, po
Assay type: ADME, organism-based
Settings: in vivo
reported.metric: half-life
# output: numeric value plus its unit

compound_structure=O=C([O-])C1CCN(c2cc3cccnc3c(-c3cccc(F)c3)n2)CC1.[Na+] recorded_result="17 h"

Kindly review the next compound as well.
response.value for "N#Cc1cccc(-c2nc([C@H]3CC[C@H](C(=O)[O-])CC3)cc3cccnc23)c1.[K+]" (field: half-life) = 193 h

* * *

The compounds below have reported pIC50 for 3',5'-cyclic-AMP phosphodiesterase 4A (Homo sapiens).
Please treat pIC50 as minus the base-10 logarithm of the molar concentration.

See these solved cases before continuing.
compound_structure=COc1cccc(-c2nc(N3CCC(C(=O)O)CC3)cc3cccnc23)c1 recorded_result=6.27
compound_structure=O=C(O)C1CCN(c2cc3cccnc3c(-c3cccc(OC(F)(F)F)c3)n2)CC1 recorded_result=6.43
compound_structure=CSc1cccc(-c2nc(N3CCC(C(=O)O)CC3)cc3cccnc23)c1 recorded_result=6.23

So, "O=C(O)[C@H]1CC[C@H](c2cc3cccnc3c(-c3cccc(OC(F)(F)F)c3)n2)CC1" ? Its pIC50 was 6.97
